tgt: BACE1 (Homo sapiens, UniProt P56817)
Sequence (P56817 46-501, species assumed): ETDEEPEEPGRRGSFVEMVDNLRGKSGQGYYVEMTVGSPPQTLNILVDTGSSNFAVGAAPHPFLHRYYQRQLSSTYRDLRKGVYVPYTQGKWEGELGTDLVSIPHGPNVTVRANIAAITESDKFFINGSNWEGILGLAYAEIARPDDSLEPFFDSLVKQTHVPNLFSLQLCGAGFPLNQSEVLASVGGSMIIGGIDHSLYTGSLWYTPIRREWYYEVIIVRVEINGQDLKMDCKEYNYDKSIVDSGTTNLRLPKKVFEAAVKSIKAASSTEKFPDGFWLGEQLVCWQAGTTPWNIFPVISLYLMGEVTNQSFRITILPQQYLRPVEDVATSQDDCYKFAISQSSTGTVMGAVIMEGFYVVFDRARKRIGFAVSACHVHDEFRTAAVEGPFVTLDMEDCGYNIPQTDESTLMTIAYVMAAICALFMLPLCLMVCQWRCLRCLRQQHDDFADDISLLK
protocolSummary: In Vitro Enzymatic BACE FRET (Fluorescence Resonance Energy Transfer) Assay
Format: biochemical
conditionSet: Table IV, class symbols; read-out: BACE1 FRET assay
pIC50: −log10 of the molar value.
propertyLabel: pIC50

{"columns": ["molecule", "result"],
 "data": [
  ["COc1cccc(-c2ccc3c(c2)[C@]2(COC(N)=N2)c2cc(-c4cncnc4)ccc2O3)c1 [compound 893]", "> 7.00"],
  ["NC1=N[C@@]2(CO1)c1cc(-c3cccnc3)ccc1Oc1ccc(-c3csc(N4CCCC4)n3)cc12 [compound 624]", "6.00 to 7.00"],
  ["CC(C)(O)C#Cc1cnc2c(c1)[C@]1(COC(N)=N1)c1cc(-c3ccccc3)ccc1O2 [compound 647]", "> 7.00"],
  ["COc1ccc2c(c1)[C@@]1(COC(N)=N1)c1c(ccc(-c3cncnc3)c1F)O2 [compound 899]", "6.00 to 7.00"]
]}

Prompt line: What value of measured pIC50 is listed for CC(C)(C)COc1ccc2c(c1)[C@]1(COC(N)=N1)c1cc(-c3ccc(Cl)nc3)ccc1O2 [compound 887] ?
Response line: > 7.00

---

tgt: BACE1 (Homo sapiens)
protocolSummary: In Vitro BACE Cell-based Assay (HEK cell assay): Aβ40 in conditioned medium of cells stably expressing Amyloid Precursor Protein, sandwich ELISA
conditionSet: Table IV, class symbols; read-out: HEK cell assay
Experimental: In Vitro BACE Cell-based Assay The cell-based assay measures inhibition or reduction of Aβ40 in conditioned medium of test compound treated cells expressing amyloid precursor protein. Cells stably expressing Amyloid Precursor Protein (APP) were plated at a density of 40K cells/well in 96 well plates (Costar). […] After 24 h of incubation with the test compounds the supernatant conditioned media was collected and the Aβ 40 levels were determined using a sandwich ELISA. […]
propertyLabel: IC50

{"columns": ["molecule", "IC50"],
 "data": [
  ["NC1=N[C@]2(CO1)c1cc(-c3cccnc3)ccc1Oc1c(F)cc(C3=CCOCC3)cc12 [compound 644]", "1000 to 5000 nM"],
  ["CC(C)(C)C#Cc1ccc2c(n1)[C@]1(COC(N)=N1)c1cc(-c3cccnc3)ccc1O2 [compound 854]", "< 100 nM"],
  ["Cc1cnc(F)c(-c2ccc3c(c2)[C@@]2(COC(N)=N2)c2cccnc2O3)c1 [compound 571]", "100 to 1000 nM"],
  ["CC(C)(C)COc1ccc2c(c1)[C@]1(COC(N)=N1)c1ccccc1O2 [compound 655]", "> 5000 nM"],
  ["Cn1cnc(-c2ccc3c(c2)[C@]2(COC(N)=N2)c2cc(-c4cccnc4)ccc2O3)c1 [compound 554]", "< 100 nM"]
]}

Prompt line: I would be grateful if you could share the reported IC50 for CC(C)(C)COc1ccc2c(c1)[C@]1(COC(N)=N1)c1cc(-c3cccnc3Cl)ccc1O2 [compound 913] .
Response line: 100 to 1000 nM

Prompt line: Requested read-out: IC50. Entry: COc1ccc2c(c1)[C@]1(COC(N)=N1)c1c(ccc(-c3cncnc3)c1F)O2 [compound 814]
Response line: 100 to 1000 nM

Prompt line: Find the recorded IC50 belonging to NC1=N[C@]2(CO1)c1cnccc1Oc1ccc(-c3cccnc3)cc12 [compound 557] and report it.
Response line: 1000 to 5000 nM

---

tgt: BACE1 (Homo sapiens, UniProt P56817)
protocolSummary: In Vitro Enzymatic BACE FRET (Fluorescence Resonance Energy Transfer) Assay
Assay type: biochemical
conditionSet: Table 1; read-out: BACE1 FRET assay
propertyLabel: IC50

The following compounds have reported results that may help.
{"columns": ["compound", "IC50"],
 "data": [
  ["COc1ccc2c(c1)[C@]1(COC(N)=N1)c1cc(-c3cc(Cl)ccc3F)ccc1O2", "0.1 to 1 µM"],
  ["Cc1ccc2c(c1)Oc1ccc(-c3ccc(OC(F)(F)F)cc3)cc1C21COC(N)=N1 (centres unmarked)", "> 5 µM"],
  ["Cc1ccc2c(c1)Oc1ccc(-c3cccc(Cl)c3F)cc1C21COC(N)=N1 (centres unmarked)", "> 5 µM"],
  ["COc1ccc2c(c1)[C@@]1(COC(N)=N1)c1cc(-c3cncnc3)ccc1O2", "> 5 µM"],
  ["Cc1ccc2c(c1)Oc1ccc(-c3cccc(OC(F)(F)F)c3)cc1[C@]21COC(N)=N1", "> 5 µM"],
  ["COc1ccc2c(c1)C1(COC(N)=N1)c1cc(-c3cccc(C)c3)ccc1O2 (centres unmarked)", "1 to 5 µM"]
]}

Prompt line: Need IC50 of COc1ccc2c(c1)C1(COC(N)=N1)c1cc(-c3cccc(OC(F)(F)F)c3)ccc1O2 (centres unmarked) , thanks.
Response line: 1 to 5 µM

Prompt line: Reported IC50, compound COc1ccc2c(c1)C1(COC(N)=N1)c1cc(-c3cc(Cl)c(C)cc3F)ccc1O2 (centres unmarked) : ____
Response line: 1 to 5 µM

---

Property: pIC50; scope: individual compounds
tgt: BACE1 (Homo sapiens)
protocolSummary: In Vitro BACE Cell-based Assay (HEK cell assay): Aβ40 in conditioned medium of cells stably expressing Amyloid Precursor Protein, sandwich ELISA
conditionSet: HEK cells; read-out: HEK cell assay
Description: In Vitro BACE Cell-based Assay The cell-based assay measures inhibition or reduction of Aβ40 in conditioned medium of test compound treated cells expressing amyloid precursor protein. Cells stably expressing Amyloid Precursor Protein (APP) were plated at a density of 40K cells/well in 96 well plates (Costar). […] After 24 h of incubation with the test compounds the supernatant conditioned media was collected and the Aβ 40 levels were determined using a sandwich ELISA. […]
pIC50: −log10 of the molar value.

The examples below pair each entry with its known result.
{"columns": ["compound", "result"],
 "data": [
  ["NC1=N[C@@]2(CO1)c1cc(-c3ccccc3F)ccc1Oc1ncc(C3=CCOCC3)cc12 [compound 488]", "> 7.00"],
  ["NC1=N[C@@]2(CO1)c1cc(-c3cc(Cl)ccc3F)ccc1Oc1ncc(N3CCOCC3)cc12 [compound 457]", "> 7.00"],
  ["NC1=N[C@@]2(CO1)c1cc(-c3ccccc3F)ccc1Oc1cnc(C3=CCOCC3)cc12 [compound 426]", "6.00 to 7.00"],
  ["CC(C)(F)COc1cnc2c(c1)[C@]1(COC(N)=N1)c1cc(-c3cccnc3F)ccc1O2 [compound 449]", "> 7.00"],
  ["NC1=N[C@@]2(CO1)c1cc(-c3cc(F)ccc3F)ccc1Oc1ncc(N3CCOCC3)cc12 [compound 461]", "> 7.00"]
]}

Prompt line: Given the entry NC1=N[C@@]2(CO1)c1cc(-c3cc(Cl)ccc3F)ccc1Oc1cnc(C3=CCOCC3)cc12 [compound 424] , what pIC50 was observed with BACE1 (Homo sapiens)?
Response line: > 7.00

Prompt line: Provide value of pIC50 for this record tested with BACE1 (Homo sapiens): CC1(C)CC(c2cc3c(cn2)Oc2ccc(-c4cccnc4)cc2[C@@]32COC(N)=N2)=CCO1 [compound 436]
Response line: > 7.00

Prompt line: Test system BACE1 (Homo sapiens); read-out pIC50; what value for CC1(C)CN(c2cc(F)c3c(c2)[C@]2(COC(N)=N2)c2cc(-c4cccnc4)ccc2O3)CCO1 [compound 484] ?
Response line: > 7.00

---

Entries and their pIC50 values follow.
tgt: BACE1 (Homo sapiens)
protocolSummary: In Vitro BACE Cell-based Assay (HEK cell assay): Aβ40 in conditioned medium of cells stably expressing Amyloid Precursor Protein, sandwich ELISA
conditionSet: read-out: HEK cell assay
pIC50: −log10 of the molar value.

Example entries begin here.
{"columns": ["structureString", "result"],
 "data": [
  ["CC(C)(O)C#Cc1cnc2c(c1)[C@@]1(COC(N)=N1)c1cc(C#CC3CC3)ccc1O2", "< 5.30"],
  ["N#CCOc1ccc2c(c1)[C@]1(COC(N)=N1)c1cc(-c3cccnc3)ccc1O2", "5.30 to 6.00"],
  ["NC1=N[C@@]2(CO1)c1cc(Br)ccc1Oc1ccc(C#CC3(O)COC3)cc12", "< 5.30"],
  ["N#Cc1ccccc1-c1ccc2c(c1)[C@]1(COC(N)=N1)c1cc(-c3cccnc3)ccc1O2", "6.00 to 7.00"],
  ["CC(C)(C)COc1ccc2c(c1)[C@@]1(COC(N)=N1)c1ccccc1O2", "5.30 to 6.00"],
  ["NC1=N[C@]2(CO1)c1cc(-c3ccc(F)nc3)ccc1Oc1ncc(C3=CCOCC3)cc12", "5.30 to 6.00"]
]}

Prompt line: Look at this compound and give its reported pIC50. COC(C)(C)C#Cc1cc(F)c2c(c1)[C@@]1(COC(N)=N1)c1cc(-c3cncnc3)ccc1O2
Response line: 5.30 to 6.00

Prompt line: Need pIC50, item CC(C)(C)CC(=O)c1ccc2c(c1)[C@]1(CSC(N)=N1)c1cc(-c3cncnc3)ccc1O2
Response line: 6.00 to 7.00

Prompt line: # query: pIC50 of entry CC(C)(C)COc1ccc2c(c1)[C@]1(COC(N)=N1)c1cc(-c3cncs3)ccc1O2
Response line: 5.30 to 6.00

Prompt line: For the compound CCCOc1cc2c(cc1F)Oc1ccc(-c3cccnc3)cc1[C@]21COC(N)=N1 , what pIC50 is on record?
Response line: 6.00 to 7.00

Prompt line: GET /values?readout=pIC50&item= NC1=N[C@@]2(CO1)c1cc(-c3cccnc3)ccc1Oc1ccc(C3CC3)cc12
Response line: 6.00 to 7.00

Prompt line: So what does the record say about pIC50 for Cc1cccc(-c2ccc3c(c2)[C@]2(COC(N)=N2)c2cc(-c4cncnc4)ccc2O3)c1 ?
Response line: > 7.00

Prompt line: Fill in: pIC50 of COC(C)(C)C#Cc1cnc2c(c1)[C@@]1(COC(N)=N1)c1cc(-c3cnccn3)ccc1O2 is ___
Response line: < 5.30
